Data provenance is patent US20020115661A1.

# Tested on: human ETB receptors (Homo sapiens)
# Construct: expressed in transfected cells; host or cells: CHO cells
# Sequence (P24530 27-442): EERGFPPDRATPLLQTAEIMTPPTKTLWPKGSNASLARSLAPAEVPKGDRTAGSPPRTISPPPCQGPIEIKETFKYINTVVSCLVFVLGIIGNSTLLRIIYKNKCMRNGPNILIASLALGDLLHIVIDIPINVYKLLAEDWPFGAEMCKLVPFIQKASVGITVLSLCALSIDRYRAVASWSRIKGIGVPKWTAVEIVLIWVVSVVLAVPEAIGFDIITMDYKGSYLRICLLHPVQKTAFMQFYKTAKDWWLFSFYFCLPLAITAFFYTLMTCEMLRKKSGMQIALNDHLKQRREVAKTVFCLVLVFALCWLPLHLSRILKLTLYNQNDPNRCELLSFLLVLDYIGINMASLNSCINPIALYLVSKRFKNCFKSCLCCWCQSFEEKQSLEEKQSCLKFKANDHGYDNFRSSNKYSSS
# Protocol details: [125I]ET-3 binding to recombinant human ETB receptors (CHO cell membranes)
# Measurement parameters: [125I]ET-3; CHO cell membranes with cloned human ETB receptors; read-out: ETB, IC50
Property name: IC50
# output: numeric value plus its unit

May I ask what IC50 has been recorded for CCc1cc(C2=C(C(=O)[O-])N(c3ccccc3C(F)(F)F)S(=O)(=O)c3ccccc32)cc2c1OCO2.[K+] [CI-1034, monopotassium salt] ?
1600 nM
